tested on: UO-31 renal; experiment: NCI tumour cell line growth inhibition, 48 h
RECORDED_ENDPOINT: TGI

Cc1ccc(-c2nc(/C=N/Nc3cc(C)nc4ccc(Br)cc34)c(C)o2)cc1 | 3.08 µM
CCOC(=O)CNC(=O)OCc1ccccc1 | > 100 µM
COc1nc2ccc(CNc3ccc(C(=O)NC(CCC(=O)O)C(=O)O)cc3)cc2nc1OC (stereo unspecified) | > 100 µM
CCOC(=O)[C@@H](NC(=O)OC(C)(C)C)[C@@H](O)C(=O)OCC | > 100 µM
CCCS(=O)(=O)Nc1cccc(Nc2ncnc3cc(NC(=O)CCl)ccc23)c1Cl | 7.65 µM

Provide reported TGI for each item, in the same order as listed.
1. COc1ccc(C2CC(c3ccc(OC)cc3O)=NN2c2ccc(S(N)(=O)=O)cc2)cc1 (stereo unspecified)
2. CN(C)/C=C/c1c2c(nc3ccccc13)C(=O)c1cccnc1C2=O
3. CC(C)c1cccc(C(C)C)c1NC(=O)C(=O)C1CCC2=C(Sc3ccccc3N2)C1=O (stereo unspecified)
4. CC(=O)[CH-]C(C)=O.CC(=O)[CH-]C(C)=O.[Cl-].[O]=[V]
5. COc1ccc(-c2oc3c(OC)c(OC)c(OC)c(O)c3c(=O)c2OC)cc1O
6. CCN(CC)CCn1c(=O)c2cc(OC)c(OC)cc2c2ccc3cc4c(cc3c21)OCO4
7. O=C1CCC2(CC1CCS(=O)c1ccccc1)OCCO2 (stereo unspecified)
8. O=C1/C(=C/c2ccccc2)CCc2ccc([N+](=O)[O-])cc21

1. > 100 µM
2. 3.02 µM
3. > 100 µM
4. > 100 µM
5. 5.81 µM
6. 17.3 µM
7. > 100 µM
8. > 100 µM

* * *

test system: 786-0 renal; test: NCI tumour cell line growth inhibition, 48 h
Give measured TGI for each item. Keep answers brief.

COc1c(C)c(OC)c(C(=O)CC(C)C)c(OC)c1C | > 100 µM
COc1cc(/C=C2\NC(=O)C3Cc4c(OC)c(C)c(OC)c(OC)c4C2N3C)c(OC)c(C)c1OC (stereo not drawn) | > 100 µM
CC[C@]1(Cc2ccc(OC)c(OC)c2)C2CC(C(=O)OC)ON2O[C@H](OCc2ccccc2)[C@@H]1OC(C)=O (stereo partly drawn) | > 100 µM
COC(=O)C1=C(C(=O)ON)[C@@H]2C=C[C@@]1([C@@H](Cc1ccccc1)Nc1ccccc1)O2 | 3.57 µM
CC(=O)C1C(=O)C(C(C)=O)C2C3C=CC(C3)C12 (stereo not drawn) | > 100 µM

# return TGI for each item in the list
1. O=C(C=Nc1ccccc1S)c1ccco1
2. COc1cc2c(cc1O)c(=O)n(CCN(C)C)c1c3cc4c(cc3ncc21)OCO4
3. CN1N=C2c3ccccc3OC(c3ccccc3)[C@H]2C1c1ccccc1 (stereo partly drawn)
4. O=C1/C(=C/c2ccccc2)CCc2ccc([N+](=O)[O-])cc21

1: 31.8 µM; 2: 0.0291 µM; 3: > 100 µM; 4: > 80.3 µM

Record TGI per entry; entries follow.
1. CCc1cccc(NC(=O)Nc2ccc(Oc3ccc4nc(NC(=O)OC)[nH]c4c3)cc2)c1
2. CC(=O)NCc1c(C(N)=O)ncn1Cc1ccccc1
3. CC(ON1[C@](C)(c2ccccc2)CC[C@@]1(C)c1ccccc1)c1ccccc1 (stereo partly drawn)
4. CCN(CCO)CCCC(C)Nc1ccnc2cc(Cl)ccc12 (stereo not drawn)

1. > 25 µM
2. > 100 µM
3. > 100 µM
4. > 100 µM
